B1: LINE1-full (parent)
chain: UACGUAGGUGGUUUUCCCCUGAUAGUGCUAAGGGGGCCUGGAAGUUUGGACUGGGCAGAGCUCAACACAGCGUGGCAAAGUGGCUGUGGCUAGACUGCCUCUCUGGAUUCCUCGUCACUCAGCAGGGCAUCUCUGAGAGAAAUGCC

Variants of: B1
Assay method text: self-cleavage, relative activity (ratio to wild type); higher = more cleavage; in vitro, sequencing; the parent is a self-cleaving ribozyme
For each record, write down the corresponding self-cleavage.
Format: numeric value only, no unit, no commentary.

What value of self-cleavage has been reported for the following variant? G10A A59G 0.17

What value of self-cleavage has been reported for the following variant? U29G U112C 1.36

What value of self-cleavage has been reported for the following variant? A79C U119C 1.82

What value of self-cleavage has been reported for the following variant? C51U A65G 0.05

What value of self-cleavage has been reported for the following variant? A30U A57U 0.13

What value of self-cleavage has been reported for the following variant? A69G C128A 0.14

What value of self-cleavage has been reported for the following variant? U81C U130G 1.84

What value of self-cleavage has been reported for the following variant? G25C 1.4

What value of self-cleavage has been reported for the following variant? U15C G122U 1.16

What value of self-cleavage has been reported for the following variant? G11C A57G 0.71

What value of self-cleavage has been reported for the following variant? U87A A142G 0.07
